- Test system: HIV-1 Ba-L virus (gp120) (Human immunodeficiency virus 1 (Ba-L))
- assay-details: cell_activity
- condition-summary: 2'-F pyrimidines (U, C); neutralisation in human PBMC; about 5 log10 at 100 nM

polymer-sequence: GAGCGGUUAAGGGAGAUUUAGGCAGCAGCUUGGACAGUGUAUCGGCUGAG [B4]
IC50: < 1 nM
